assay: Half life in CD1 mouse at 5 mg/kg, iv administered as single dose; format: ADME, organism-based; conditions: in vivo
outcome-measure: half-life (h)

>>> df
                                   compound  quantitative_readout
0  Cl.N[C@@H]1C[C@H]1c1ccc(NC(=O)c2cccc(N3CCOC3=O)c2)cc1 (racemic)                  1.92

These entries and their values trace back to ChEMBL document CHEMBL3779820.
